Recorded values, source ChEMBL document CHEMBL4680261.

# Run description: Plasma concentration in BALB/c mouse at 16 to 32 mg/kg, iv measured after 24 hrs
# Format: ADME, organism-based
# Experimental context: dose 16-32 mg/kg
Parameter measured: concentration at 24 h (nM)
The reply should be a number in nM, with the unit left off.

For the compound `CC(C)CCc1cn(-c2ccc(NC(=O)Nc3cccc4cnccc34)cc2)nn1` , what concentration at 24 h is on record?
2000

----------
# Run description: Tmax in BALB/c mouse at 16 to 32 mg/kg, iv measured upto 24 hrs
# Assay type: ADME, organism-based
# Experimental context: in vivo, dose 16-32 mg/kg
Parameter measured: Tmax (h)
The reply should be a number in h, with the unit left off.

For the molecule `CC(C)CCc1cn(-c2ccc(NC(=O)Nc3cccc4cnccc34)cc2)nn1` , what Tmax is on record?
1

----------
# Run description: Cmax in BALB/c mouse at 32 mg/kg, iv measured upto 24 hrs by HPLC-MS analysis
# Type: ADME, organism-based
# Design: route intravenous, dose 32 mg/kg, time <=24
# Experimental context: in vivo
Parameter measured: Cmax (ng/mL)
The reply should be a number in ng/mL, with the unit left off.

For the molecule `CC(C)CCc1cn(-c2ccc(NC(=O)Nc3cccc4cnccc34)cc2)nn1` , what Cmax is on record?
44400

----------
# Run description: Metabolic stability in human liver microsomes assessed as parent compound remaining measured after 60 mins by LC-UV-MS analysis
# Type: ADME, Microsome
# Experimental context: read-out: Stabilty
Parameter measured: remaining at 1 h (%)
The reply should be a number in %, with the unit left off.

For the molecule `CCCCc1cn(-c2ccc(NC(=O)Nc3cc(OC4CCCC4)ccc3C)cc2)nn1` , what remaining at 1 h is on record?
92.5

Same read-out for `CCCCc1cn(-c2ccc(NC(=O)Nc3cccc4cnccc34)cc2)nn1` ?
95.2

Same read-out for `CCOC(=O)CCc1cn(-c2ccc(NC(=O)Nc3ccccc3C(F)(F)F)cc2)nn1` ?
16.9

Same read-out for `CC(C)CC(=O)OCCc1cn(-c2ccc(NC(=O)Nc3ccccc3C(F)(F)F)cc2)nn1` ?
49.3

Same read-out for `COCCc1cn(-c2ccc(NC(=O)Nc3ccccc3C)cc2)nn1` ?
94.2

Same read-out for `CC(C)CCc1cn(-c2ccc(NC(=O)Nc3cccc4cnccc34)cc2)nn1` ?
89.7

Same read-out for `CCCCc1cn(-c2ccc(NC(=O)Nc3cc(OP(=O)(OCC)OCC)ccc3C)cc2)nn1` ?
85.2

Same read-out for `CCOP(=O)(OCC)OCCc1cn(-c2ccc(NC(=O)Nc3ccccc3C)cc2)nn1` ?
53.7

----------
# Run description: Observed clearance in BALB/c mouse at 16 mg/kg, iv measured upto 24 hrs by HPLC-MS analysis
# Type: ADME, organism-based
# Experimental context: in vivo
Parameter measured: clearance (mL/min/kg)
The reply should be a number in mL/min/kg, with the unit left off.

For the compound `CC(C)CCc1cn(-c2ccc(NC(=O)Nc3cccc4cnccc34)cc2)nn1` , what clearance is on record?
8

----------
# Run description: Observed volume of distribution at steady state in BALB/c mouse at 16 mg/kg, iv measured upto 24 hrs by HPLC-MS analysis
# Type: ADME, organism-based
# Experimental context: in vivo, read-out: Vdss
Parameter measured: Vd (L/kg)
The reply should be a number in L/kg, with the unit left off.

For the compound `CC(C)CCc1cn(-c2ccc(NC(=O)Nc3cccc4cnccc34)cc2)nn1` , what Vd is on record?
7

----------
# System: UniProt O00571
# Sequence (O00571 whole entry): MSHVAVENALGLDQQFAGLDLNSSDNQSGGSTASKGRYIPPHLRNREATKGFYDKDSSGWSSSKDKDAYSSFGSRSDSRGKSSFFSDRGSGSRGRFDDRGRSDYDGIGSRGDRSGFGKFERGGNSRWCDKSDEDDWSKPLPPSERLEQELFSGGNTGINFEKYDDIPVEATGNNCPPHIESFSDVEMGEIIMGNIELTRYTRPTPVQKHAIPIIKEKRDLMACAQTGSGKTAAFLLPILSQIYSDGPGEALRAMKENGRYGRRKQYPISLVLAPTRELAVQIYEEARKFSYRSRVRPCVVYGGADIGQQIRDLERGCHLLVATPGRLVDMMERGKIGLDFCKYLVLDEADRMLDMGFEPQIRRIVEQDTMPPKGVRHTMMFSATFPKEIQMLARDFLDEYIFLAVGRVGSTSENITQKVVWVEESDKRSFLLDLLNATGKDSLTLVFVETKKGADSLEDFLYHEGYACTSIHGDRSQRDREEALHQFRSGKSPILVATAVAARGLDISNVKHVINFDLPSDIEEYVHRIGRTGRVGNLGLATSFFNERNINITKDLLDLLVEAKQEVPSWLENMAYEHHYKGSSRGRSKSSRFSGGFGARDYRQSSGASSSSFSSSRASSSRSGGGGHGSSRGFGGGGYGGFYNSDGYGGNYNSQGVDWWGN
# Run description: Inhibition of human DDX3X using dsRNA as substrate measured every 30 sec for 40 mins by FRET assay
# Experimental context: read-out: IC50
Just a reminder that ties go to Criterion not met: only IC50 strictly below 900 nM counts as Criterion met.

Consider the compound `CCOC(=O)CCc1cn(-c2ccc(NC(=O)Nc3ccccc3C(F)(F)F)cc2)nn1` . Is its IC50 strictly less than 900 nM?
Criterion not met

Same read-out for `CCCCc1cn(-c2ccc(NC(=O)Nc3cc(OCOC)ccc3C)cc2)nn1` ?
Criterion met

Same read-out for `Cc1ccccc1NC(=O)Nc1ccc(-n2cc(CCCN3CCOCC3)nn2)cc1` ?
Criterion not met

Same read-out for `CCCCc1cn(-c2ccc(NC(=O)Nc3cc(O)ccc3C)cc2)nn1` ?
Criterion met

Same read-out for `CCOCc1cn(-c2ccc(NC(=O)Nc3cc(C(C)C)ccc3C)cc2)nn1` ?
Criterion not met

Same read-out for `CCCCc1cn(-c2ccc(NC(=O)Nc3cccc4cnccc34)cc2)nn1` ?
Criterion met

Same read-out for CCCCc1cn(-c2ccc(NC(=O)Nc3cc(OC4CCOC4)ccc3C)cc2)nn1 (centres undefined) ?
Criterion met

Same read-out for `CCCCc1cn(-c2ccc(NC(=O)Nc3cc(OP(=O)(OCC)OCC)ccc3C)cc2)nn1` ?
Criterion not met

Same read-out for `CCCCc1cn(-c2ccc(NC(=O)Nc3cc(CCC(C)=O)ccc3C)cc2)nn1` ?
Criterion not met

Same read-out for `O=C(Nc1ccc(-n2cc(CCO)nn2)cc1)Nc1ccccc1C(F)(F)F` ?
Criterion not met

Same read-out for `CC(C)CCc1cn(-c2ccc(NC(=O)Nc3cccc4cnccc34)cc2)nn1` ?
Criterion met

Same read-out for `Cc1ccccc1NC(=O)Nc1ccc(-n2cc(CCN3CCOCC3)nn2)cc1` ?
Criterion not met

Same read-out for `Cc1ccccc1NC(=O)Nc1ccc(-n2cc(CCO)nn2)cc1` ?
Criterion not met

Same read-out for `CCCCc1cn(-c2ccc(NC(=O)Nc3cc(OC4CCCC4)ccc3C)cc2)nn1` ?
Criterion met
